experiment: Cell-based HTS system for cytotoxic concentration (CC50), FF-luc HEp-2 cells
applied.conditions: 72 h, concentrations up to 100 μM, read-out: half maximal cytotoxic concentration (CC50)
parameter.measured: CC50 (µM)

>>> observed("C/C=C1\\NC(=O)[C@H](Cc2ccccc2)NC(=O)[C@@H]2CCCN2C(=O)[C@H](C(C)C)NC(=O)[C@H](Cc2c[nH]c3ccccc23)NC(=O)[C@]23CSC[C@H](NC1=O)C(=O)N[C@H](C(=O)O)CSSC[C@H](NC(=O)[C@@H]1CSC[C@]4(C[C@H](N)C(=O)N[C@@H](CC(N)=O)C(=O)N[C@@H](C)C(=O)N4)C(=O)N[C@@H](C(C)C)C(=O)N[C@@H](Cc4c[nH]c5ccccc45)C(=O)N[C@@H](CCC(=O)O)C(=O)N1)C(=O)N[C@@H](C2)C(=O)N[C@@H]([C@@H](C)O)C(=O)NCC(=O)N3 [LabyA1, Labyrinthopeptin A1]")
79.7
